assay: Water solubility of compound; assay type: physicochemical; conditions: buffer
measuredEndpoint: solubility

| chemicalString | measuredEndpoint | reading |
| --- | --- | --- |
| C[C@@H]1CC[C@@]2(OC1)O[C@H]1C[C@H]3[C@@H]4CC=C5C[C@@H](OC(=O)c6cccc(C(=O)NO)c6)CC[C@]5(C)[C@H]4CC[C@]3(C)[C@H]1[C@@H]2C | solubility | Soluble |
| C[C@@H]1CC[C@@]2(OC1)O[C@H]1C[C@H]3[C@@H]4CC=C5C[C@@H](OC(=O)CCCC[P+](c6ccc(F)cc6)(c6ccc(F)cc6)c6ccc(F)cc6)CC[C@]5(C)[C@H]4CC[C@]3(C)[C@H]1[C@@H]2C.[Br-] | solubility | Soluble |
